Where these numbers come from: PubChem BioAssay AID2060619

System: 323965-272-R-J2-PDC complex spheroid viability
Test: Anticancer human tumor 323965-272-R-J2-PDC patient-derived pancreatic carcinoma cell line growth inhibition [CLK]; active = viability on the fitted dose curve at most 10% of control; inactive = the rest
Settings: second compound 3.16 µM; first compound 0.003 µM
Source text: A high-throughput screen of multi-cell type tumor spheroids was designed to identify active combinations of […] and targeted small molecules. Complex spheroids include a stromal component modeled by human endothelial cells (HUVEC) and fibroblasts modeled by human mesenchymal stem cells (MSCs). […] Compounds. […] If the clinical Cmax for an agent had not been determined, the highest concentration tested was 10 microM. […]
Can you answer with just one of these options? yes (1) (active), no (0) (inactive)

C=CC(=O)Nc1cc(Nc2nccc(-c3cn(C)c4ccccc34)n2)c(OC)cc1N(C)CCN(C)C + CN1CCN(c2cc(C(=O)Nc3cc4cc(-c5cnn(C)c5)ccc4cn3)ccn2)CC1 ... yes (1)

Look up the recorded call for CC(C)CC(NC(=O)C(Cc1ccccc1)NC(=O)c1cnccn1)B(O)O (centres undefined) + CN1CCN(c2cc(C(=O)Nc3cc4cc(-c5cnn(C)c5)ccc4cn3)ccn2)CC1 in this test.
yes (1)

Repeat with C=CC(=O)Nc1cc(Nc2nccc(-c3cn(C)c4ccccc34)n2)c(OC)cc1N(C)CCN(C)C + CNC(=O)c1ccc(Nc2nc(OC3CCCC3)c3c(-c4ccc5nc(C)oc5c4)c[nH]c3n2)c(OC)c1
no (0)

Subsequent entry: CC(C)CC(NC(=O)C(Cc1ccccc1)NC(=O)c1cnccn1)B(O)O (centres undefined) + CNC(=O)c1ccc(Nc2nc(OC3CCCC3)c3c(-c4ccc5nc(C)oc5c4)c[nH]c3n2)c(OC)c1
no (0)

* * *

Tested on: 323965-272-R-J2-PDC complex spheroid viability
Assay: Anticancer human tumor 323965-272-R-J2-PDC cell line growth inhibition [CLK];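 note: spheroids exposed to agents for seven days before readout; percent of DMSO vehicle control wells so 100% = untreated growth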
Details: second compound 0.316 µM; first compound 0.1 µM; hits give low values
assay_metric: viability, T/C (%)
Numbers only, in %.

In the examples that follow, each entry is paired with its recorded viability, T/C.
O=c1[nH]cc(F)c(=O)[nH]1 + CNC(=O)c1ccc(Nc2nc(OC3CCCC3)c3c(-c4ccc5nc(C)oc5c4)c[nH]c3n2)c(OC)c1 ... 59.9
Cn1ncnc1[C@H]1c2n[nH]c(=O)c3cc(F)cc(c23)N[C@@H]1c1ccc(F)cc1 + CNC(=O)c1ccc(Nc2nc(OC3CCCC3)c3c(-c4ccc5nc(C)oc5c4)c[nH]c3n2)c(OC)c1 ... 51.6
COC1C=CCC(C)C(C)S(=O)(=O)NC(=O)c2ccc3c(c2)N(CC2CCC21)CC1(CCCc2cc(Cl)ccc21)CO3 (stereo unspecified) + CN1CCN(c2cc(C(=O)Nc3cc4cc(-c5cnn(C)c5)ccc4cn3)ccn2)CC1 ... 26.2
CC1COCCN1c1cc(C2(S(C)(=N)=O)CC2)nc(-c2ccnc3[nH]ccc23)n1 (stereo unspecified) + CN1CCN(c2cc(C(=O)Nc3cc4cc(-c5cnn(C)c5)ccc4cn3)ccn2)CC1 ... 29.2
Nc1ccccc1NC(=O)c1ccc(CNC(=O)OCc2cccnc2)cc1 + CN1CCN(c2cc(C(=O)Nc3cc4cc(-c5cnn(C)c5)ccc4cn3)ccn2)CC1 ... 24.6

Next item in the queue.
Looking for the measured viability, T/C of C=CC(=O)N1CCN(c2nc(=O)n(-c3c(C)ccnc3C(C)C)c3nc(-c4c(O)cccc4F)c(F)cc23)C(C)C1 (stereo unspecified) + CN1CCN(c2cc(C(=O)Nc3cc4cc(-c5cnn(C)c5)ccc4cn3)ccn2)CC1 , can you help?
17.9
